Organism: Cavia porcellus
procedure.details: Potency in displacing [3H]Boc(Nle28,Nle31)-CCk27-33 from guinea pig pancreatic acini.
Square brackets hold non-standard residues; d marks the D form. Peptide text beside a SMILES is read from it. * marks the point of attachment. sY = N[C@@H](Cc1ccc(OS(=O)(=O)O)cc1)C(=O)O; Nle = CCCC[C@H](N)C(=O)O; Boc = CC(C)(C)OC(=O)*
readout.label: log10 of Ki (log10 of the value in nM)
Quick note: numbers are log10 of Ki, with nM as the unit.

molecule: CSCC[C@H](NC(=O)[C@H](Cc1ccc(OS(=O)(=O)O)cc1)NC(=O)[C@@H](N)CC(=O)O)C(=O)NCC(=O)N[C@@H](Cc1c[nH]c2ccccc12)C(=O)N[C@@H](CCSC)C(=O)N[C@@H](CC(=O)O)C(=O)N[C@@H](Cc1ccccc1)C(N)=O [SINCALIDE]
log10 of Ki: 0.40

Request: Recall and state the measured log10 of Ki for CCCC[C@H](NC(=O)[C@H](Cc1ccc(OS(=O)(=O)O)cc1)NC(=O)OC(C)(C)C)C(=O)NCC(=O)N[C@@H](Cc1c[nH]c2ccccc12)C(=O)N[C@@H](C)C(=O)N[C@@H](CC(=O)O)C(=O)N[C@@H](Cc1ccccc1)C(N)=O (Boc-[sY][Nle]GWADF-NH2) .
Result: 3.04

Request: Using the record for CCCC[C@H](NC(=O)[C@H](Cc1ccc(OS(=O)(=O)O)cc1)NC(=O)OC(C)(C)C)C(=O)NCC(=O)N[C@@H](Cc1c[nH]c2ccccc12)C(=O)N[C@H](CCCN)C(=O)N[C@@H](CC(=O)O)C(=O)N[C@@H](Cc1ccccc1)C(N)=O , state its measured log10 of Ki.
Result: 2.59

Request: Return log10 of Ki (reported value) for this molecule: CCCC[C@H](NC(=O)[C@H](Cc1ccc(OS(=O)(=O)O)cc1)NC(=O)OC(C)(C)C)C(=O)NCC(=O)N[C@@H](Cc1c[nH]c2ccccc12)C(=O)N[C@@H](Cc1ccccc1)C(=O)N[C@@H](CC(=O)O)C(=O)N[C@@H](Cc1ccccc1)C(N)=O (Boc-[sY][Nle]GWFDF-NH2)
Result: 2.34

Request: Report measured log10 of Ki; entry is CCCC[C@H](NC(=O)[C@H](Cc1ccc(OS(=O)(=O)O)cc1)NC(=O)OC(C)(C)C)C(=O)NCC(=O)N[C@@H](Cc1c[nH]c2ccccc12)C(=O)N[C@@H](CCCC)C(=O)N[C@@H](CC(=O)O)C(=O)N[C@@H](Cc1ccccc1)C(N)=O (Boc-[sY][Nle]GW[Nle]DF-NH2)
Result: 0.46

* * *

Species: Mus musculus
procedure.details: Potency in displacing [3H]propionyl-CCK-8 from mouse brain membranes.
Square brackets hold non-standard residues; d marks the D form. Peptide text beside a SMILES is read from it. * marks the point of attachment. sY = N[C@@H](Cc1ccc(OS(=O)(=O)O)cc1)C(=O)O; Nle = CCCC[C@H](N)C(=O)O; Boc = CC(C)(C)OC(=O)*
Attribute: Ki

compound: CCCC[C@H](NC(=O)[C@H](Cc1ccc(OS(=O)(=O)O)cc1)NC(=O)OC(C)(C)C)C(=O)NCC(=O)N[C@@H](Cc1c[nH]c2ccccc12)C(=O)N[C@@H](C)C(=O)N[C@@H](CC(=O)O)C(=O)N[C@@H](Cc1ccccc1)C(N)=O (Boc-[sY][Nle]GWADF-NH2)
Ki: 14 nM
//
compound: CCCC[C@H](NC(=O)[C@H](Cc1ccc(OS(=O)(=O)O)cc1)NC(=O)OC(C)(C)C)C(=O)NCC(=O)N[C@@H](Cc1c[nH]c2ccccc12)C(=O)N[C@@H](CCCC)C(=O)N[C@@H](CC(=O)O)C(=O)N[C@@H](Cc1ccccc1)C(N)=O (Boc-[sY][Nle]GW[Nle]DF-NH2)
Ki: 0.13 nM
//
compound: CCCC[C@H](NC(=O)[C@H](Cc1ccc(OS(=O)(=O)O)cc1)NC(=O)OC(C)(C)C)C(=O)NCC(=O)N[C@@H](Cc1c[nH]c2ccccc12)C(=O)N[C@@H](Cc1ccccc1)C(=O)N[C@@H](CC(=O)O)C(=O)N[C@@H](Cc1ccccc1)C(N)=O (Boc-[sY][Nle]GWFDF-NH2)
Ki: 3.7 nM
//
compound: CCCC[C@H](NC(=O)[C@H](Cc1ccc(OS(=O)(=O)O)cc1)NC(=O)OC(C)(C)C)C(=O)NCC(=O)N[C@@H](Cc1c[nH]c2ccccc12)C(=O)N[C@H](CCCN)C(=O)N[C@@H](CC(=O)O)C(=O)N[C@@H](Cc1ccccc1)C(N)=O
Ki: 110 nM

Request: Recall and state the measured Ki for CCCC[C@H](NC(=O)[C@H](Cc1ccc(OS(=O)(=O)O)cc1)NC(=O)OC(C)(C)C)C(=O)NCC(=O)N[C@@H](Cc1c[nH]c2ccccc12)C(=O)N[C@@H](CCC(=O)O)C(=O)N[C@@H](CC(=O)O)C(=O)N[C@@H](Cc1ccccc1)C(N)=O (Boc-[sY][Nle]GWEDF-NH2) .
Result: > 10000 nM

* * *

Species: Cavia porcellus
procedure.details: Agonist activity by measuring the effect on amylase secretion from guinea pig acini.
Assay type: functional
Square brackets hold non-standard residues; d marks the D form. Peptide text beside a SMILES is read from it. * marks the point of attachment. sY = N[C@@H](Cc1ccc(OS(=O)(=O)O)cc1)C(=O)O; Nle = CCCC[C@H](N)C(=O)O; Boc = CC(C)(C)OC(=O)*
readout.label: pEC50
Convention used: pEC50 is expressed as -log10 of the molar concentration.

Worked cases, pEC50 given:
compound: CCCC[C@H](NC(=O)[C@H](Cc1ccc(OS(=O)(=O)O)cc1)NC(=O)OC(C)(C)C)C(=O)NCC(=O)N[C@@H](Cc1c[nH]c2ccccc12)C(=O)N[C@@H](CCCC)C(=O)N[C@@H](CC(=O)O)C(=O)N[C@@H](Cc1ccccc1)C(N)=O (Boc-[sY][Nle]GW[Nle]DF-NH2)
pEC50: 9.80
//
compound: CCCC[C@H](NC(=O)[C@H](Cc1ccc(OS(=O)(=O)O)cc1)NC(=O)OC(C)(C)C)C(=O)NCC(=O)N[C@@H](Cc1c[nH]c2ccccc12)C(=O)N[C@@H](Cc1ccccc1)C(=O)N[C@@H](CC(=O)O)C(=O)N[C@@H](Cc1ccccc1)C(N)=O (Boc-[sY][Nle]GWFDF-NH2)
pEC50: 8.47
//
compound: CCCC[C@H](NC(=O)[C@H](Cc1ccc(OS(=O)(=O)O)cc1)NC(=O)OC(C)(C)C)C(=O)NCC(=O)N[C@@H](Cc1c[nH]c2ccccc12)C(=O)N[C@@H](C)C(=O)N[C@@H](CC(=O)O)C(=O)N[C@@H](Cc1ccccc1)C(N)=O (Boc-[sY][Nle]GWADF-NH2)
pEC50: 7.60
//
compound: CSCC[C@H](NC(=O)[C@H](Cc1ccc(OS(=O)(=O)O)cc1)NC(=O)[C@@H](N)CC(=O)O)C(=O)NCC(=O)N[C@@H](Cc1c[nH]c2ccccc12)C(=O)N[C@@H](CCSC)C(=O)N[C@@H](CC(=O)O)C(=O)N[C@@H](Cc1ccccc1)C(N)=O [SINCALIDE]
pEC50: 9.89

Then there is this compound:
Request: Respond only with pEC50 recorded for CCCC[C@H](NC(=O)[C@H](Cc1ccc(OS(=O)(=O)O)cc1)NC(=O)OC(C)(C)C)C(=O)NCC(=O)N[C@@H](Cc1c[nH]c2ccccc12)C(=O)N[C@H](CCCN)C(=O)N[C@@H](CC(=O)O)C(=O)N[C@@H](Cc1ccccc1)C(N)=O
Result: 7.66
